EXPERIMENT SUMMARY: Lipophilicity, log D of the compound at pH 7.4 after 30 mins by HPLC/UV analysis
Type: physicochemical
TEST CONTEXT: buffer
MEASURE: logD at 0.5 h

- COMPOUND: "CC(C)[C@@H]1OC(=O)C2(/C=C/c3ccc4ccc(nc4c3)[C@@H](C)NC(=O)[C@@H]3CCCN(N3)C(=O)[C@H](C)NC1=O)CCOCC2"
  RECORDED VALUE: 2.4
- COMPOUND: "CC(C)[C@@H]1OC(=O)C2(/C=C/c3ccc4ccc(nc4c3)[C@@H](C)NC(=O)[C@@H]3CCCN(N3)C(=O)[C@H](C)NC1=O)CCS(=O)(=O)CC2"
  RECORDED VALUE: 1.9
- COMPOUND: "CC(C)[C@@H]1OC(=O)C2(/C=C/c3ccc4ccc(nc4c3)[C@@H](C)NC(=O)[C@@H]3CCCN(N3)C(=O)[C@H](C)NC1=O)COCOC2"
  RECORDED VALUE: 2.2
- COMPOUND: "CO[C@H]1C(=O)N[C@@H](C(C)C)C(=O)N[C@@H](C)C(=O)N2CCC[C@H](N2)C(=O)O[C@H](C)c2cccc(c2)/C=C/CC[C@H]1C"
  RECORDED VALUE: 2.9
- COMPOUND: "CO[C@@H]1/C=C/c2cc3cc(ccc3cn2)[C@@H](C)OC(=O)[C@@H]2CCCN(N2)C(=O)[C@H](C)NC(=O)[C@H](C(C)C)NC(=O)[C@@H]1C"
  RECORDED VALUE: 2.1
- COMPOUND: "CC(C)[C@@H]1NC(=O)C/C=C/c2ccc3ccc(cc3c2)[C@@H](C)OC(=O)[C@@H]2CCCN(N2)C(=O)[C@H](C)NC1=O"
  RECORDED VALUE: 2.5
- COMPOUND: "CC(C)[C@@H]1OC(=O)C(C)(C)/C=C/c2cc3cc(ccc3cn2)[C@@H](C)NC(=O)[C@@H]2CCCN(N2)C(=O)[C@H](C)NC1=O"
  RECORDED VALUE: 2
- COMPOUND: "CC(C)[C@@H]1OC(=O)C2(/C=C/c3ccc4ccc(nc4c3)[C@@H](C)NC(=O)[C@@H]3CCCN(N3)C(=O)[C@H](C)NC1=O)COCCOC2"
  RECORDED VALUE: 2.1
- COMPOUND: "CC(C)[C@@H]1NC(=O)C(C)(C)/C=C/c2ccc3ccc(nc3c2)[C@@H](C)OC(=O)[C@@H]2CCCN(N2)C(=O)[C@H](C)NC1=O"
  RECORDED VALUE: 2.7
- COMPOUND: "CC(C)[C@@H]1NC(=O)C/C=C/c2ccc3ccc(nc3c2)[C@@H](C)OC(=O)[C@@H]2CCCN(N2)C(=O)[C@H](C)NC1=O"
  RECORDED VALUE: 2.1

I: CC(C)[C@@H]1OC(=O)C(C)(C)/C=C/c2ccc3ccc(nc3c2)[C@@H](C)NC(=O)[C@@H]2CCCN(N2)C(=O)[C@H](C)NC1=O
II: CC(C)[C@@H]1OC(=O)C2(/C=C/c3ccc4ccc(nc4c3)[C@@H](C)NC(=O)[C@@H]3CCCN(N3)C(=O)[C@H](C)NC1=O)CCC(O)CC2 (stereo in doubt; 47)
Please let me know which one, I or II , has a lower measured logD at 0.5 h value. Lab log: write the label of the selected item as the result.
II
